The measurements presented in this section are drawn from PubChem BioAssay AID2060894.

Give measured viability, T/C for each item. Keep answers brief.
Test system: K12877-001-R-J1-PDC complex spheroid viability
experiment summary: Anticancer human tumor K12877-001-R-J1-PDC patient-derived lung adenocarcinoma cell line growth inhibition [RAS]
measurement conditions: second compound 0.316 µM; first compound 0.01 µM; stronger effect = lower value
Just the number in %, nothing appended.

Query O=C(c1ccc(F)c(F)c1Nc1ccc(I)cc1F)N1CC(O)([C@@H]2CCCCN2)C1 + C#Cc1c(F)ccc2cc(O)cc(-c3ncc4c(N5CC6CCC(C5)N6)nc(OCC56CCCN5CC(F)C6)nc4c3F)c12 yields viability, T/C of 104

Query C=CC(=O)Nc1cc(Nc2nccc(-c3cn(C)c4ccccc34)n2)c(OC)cc1N(C)CCN(C)C + C=CC(=O)N1CCN(c2nc(OCC3CCCN3C)nc3c(F)c(-c4nc(N)cc(C)c4C(F)(F)F)c(Cl)cc23)C(C)C1 yields viability, T/C of 94.1

Query Nc1ccn(C2OC(CO)C(O)C2(F)F)c(=O)n1 (stereo unspecified) + C#Cc1c(F)ccc2cc(O)cc(-c3ncc4c(N5CC6CCC(C5)N6)nc(OCC56CCCN5CC(F)C6)nc4c3F)c12 yields viability, T/C of 92.7

Query C=CC(=O)N1CCN(c2nc(OCC3CCCN3C)nc3c(F)c(-c4nc(N)cc(C)c4C(F)(F)F)c(Cl)cc23)C(C)C1 (stereo unspecified) + C#Cc1c(F)ccc2cc(O)cc(-c3ncc4c(N5CC6CCC(C5)N6)nc(OCC56CCCN5CC(F)C6)nc4c3F)c12 yields viability, T/C of 86.2

Query CCN1CCN(Cc2ccc(Nc3ncc(F)c(-c4cc(F)c5nc(C)n(C(C)C)c5c4)n3)nc2)CC1 + C#Cc1c(F)ccc2cc(O)cc(-c3ncc4c(N5CC6CCC(C5)N6)nc(OCC56CCCN5CC(F)C6)nc4c3F)c12 yields viability, T/C of 107

Query CCN1CCN(Cc2ccc(Nc3ncc(F)c(-c4cc(F)c5nc(C)n(C(C)C)c5c4)n3)nc2)CC1 + C=CC(=O)N1CCN(c2nc(OCC3CCCN3C)nc3c(F)c(-c4nc(N)cc(C)c4C(F)(F)F)c(Cl)cc23)C(C)C1 yields viability, T/C of 86.5

Query CC(C)n1nc(-c2ccc3oc(N)nc3c2)c2c(N)ncnc21 + C=CC(=O)N1CCN(c2nc(OCC3CCCN3C)nc3c(F)c(-c4nc(N)cc(C)c4C(F)(F)F)c(Cl)cc23)C(C)C1 yields viability, T/C of 61.6

Query O=C(c1ccc(F)c(F)c1Nc1ccc(I)cc1F)N1CC(O)([C@@H]2CCCCN2)C1 + C=CC(=O)N1CCN(c2nc(OCC3CCCN3C)nc3c(F)c(-c4nc(N)cc(C)c4C(F)(F)F)c(Cl)cc23)C(C)C1 yields viability, T/C of 83.3

Query Nc1ccn(C2OC(CO)C(O)C2(F)F)c(=O)n1 (stereo unspecified) + C=CC(=O)N1CCN(c2nc(OCC3CCCN3C)nc3c(F)c(-c4nc(N)cc(C)c4C(F)(F)F)c(Cl)cc23)C(C)C1 yields viability, T/C of 70.4

Query C=CC(=O)Nc1cc(Nc2nccc(-c3cn(C)c4ccccc34)n2)c(OC)cc1N(C)CCN(C)C + C#Cc1c(F)ccc2cc(O)cc(-c3ncc4c(N5CC6CCC(C5)N6)nc(OCC56CCCN5CC(F)C6)nc4c3F)c12 yields viability, T/C of 108

Query CC(C)n1nc(-c2ccc3oc(N)nc3c2)c2c(N)ncnc21 + C#Cc1c(F)ccc2cc(O)cc(-c3ncc4c(N5CC6CCC(C5)N6)nc(OCC56CCCN5CC(F)C6)nc4c3F)c12 yields viability, T/C of 98.8

---

Test system: K12877-001-R-J1-PDC complex spheroid viability
experiment summary: Anticancer human tumor K12877-001-R-J1-PDC cell line growth inhibition [RAS];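 note: spheroids exposed to agents for one week before readout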
measurement conditions: curve of first compound; second compound 0.00949 µM
Description: RAS pathway inhibitors in Combinations in Complex Spheroids A high-throughput screen of multi-cell type tumor spheroids was designed to identify active combinations of RAS pathway inhibitors and targeted small molecules. Complex spheroids include a stromal component modeled by human endothelial cells (HUVEC) and fibroblasts modeled by human mesenchymal stem cells (MSCs). […] Compounds. […] If the clinical Cmax for an agent had not been determined, the highest concentration tested was 10 microM. […]
For each record, check the reported IC50: if it is below 1000 nM write Fulfilled, else write Not fulfilled.

I wonder whether O=C(c1ccc(F)c(F)c1Nc1ccc(I)cc1F)N1CC(O)([C@@H]2CCCCN2)C1 + CCn1c(-c2cc(N3CCN(C)CC3)cnc2C(C)OC)c2c3cc(ccc31)-c1csc(n1)CC(NC(=O)C1CC1C)C(=O)N1CCCC(N1)C(=O)OCC(C)(C)C2 has IC50 below 1000 nM. Can you tell?
Not fulfilled

I wonder whether CC(C)NCC(C(=O)N1CCN(c2ncnc3c2C(C)CC3O)CC1)c1ccc(Cl)cc1 (centres undefined) + CCn1c(-c2cc(N3CCN(C)CC3)cnc2C(C)OC)c2c3cc(ccc31)-c1csc(n1)CC(NC(=O)C1CC1C)C(=O)N1CCCC(N1)C(=O)OCC(C)(C)C2 has IC50 below 1000 nM. Can you tell?
Not fulfilled

I wonder whether NC1c2ccccc2OC12CCN(c1cnc3c(N4CCCc5ncccc54)n[nH]c3n1)CC2 (centres undefined) + CCn1c(-c2cc(N3CCN(C)CC3)cnc2C(C)OC)c2c3cc(ccc31)-c1csc(n1)CC(NC(=O)C1CC1C)C(=O)N1CCCC(N1)C(=O)OCC(C)(C)C2 has IC50 below 1000 nM. Can you tell?
Not fulfilled

I wonder whether Cc1nc(N2CCC3(CC2)COC(C)C3N)c(CO)nc1Sc1ccnc(N)c1Cl (centres undefined) + CCn1c(-c2cc(N3CCN(C)CC3)cnc2C(C)OC)c2c3cc(ccc31)-c1csc(n1)CC(NC(=O)C1CC1C)C(=O)N1CCCC(N1)C(=O)OCC(C)(C)C2 has IC50 below 1000 nM. Can you tell?
Not fulfilled

I wonder whether C[C@@H](NC(=O)c1ncnc(N)c1Cl)c1ncc(C(=O)Nc2cc(C(F)(F)F)c(Cl)cn2)s1 + CCn1c(-c2cccnc2C(C)OC)c2c3cc(ccc31)N1CCOC(CC(NC(=O)C(C(C)C)N(C)C(=O)C3(F)CCN(C(=O)C#CC(C)(C)N(C)C)CC3)C(=O)N3CCCC(N3)C(=O)OCC(C)(C)C2)C1 has IC50 below 1000 nM. Can you tell?
Not fulfilled

I wonder whether CCc1c2c(nc3ccc(O)cc13)-c1cc3c(c(=O)n1C2)COC(=O)[C@]3(O)CC + CCn1c(-c2cccnc2C(C)OC)c2c3cc(ccc31)N1CCOC(CC(NC(=O)C(C(C)C)N(C)C(=O)C3(F)CCN(C(=O)C#CC(C)(C)N(C)C)CC3)C(=O)N3CCCC(N3)C(=O)OCC(C)(C)C2)C1 has IC50 below 1000 nM. Can you tell?
Fulfilled

I wonder whether CC1(C)CCC(Nc2ncc(C(F)(F)F)c(-c3c[nH]c4c(P(C)(C)=O)c(C#N)ccc34)n2)CN1 (centres undefined) + CCn1c(-c2cccnc2C(C)OC)c2c3cc(ccc31)N1CCOC(CC(NC(=O)C(C(C)C)N(C)C(=O)C3(F)CCN(C(=O)C#CC(C)(C)N(C)C)CC3)C(=O)N3CCCC(N3)C(=O)OCC(C)(C)C2)C1 has IC50 below 1000 nM. Can you tell?
Fulfilled

I wonder whether O=C(c1ccc(F)c(F)c1Nc1ccc(I)cc1F)N1CC(O)([C@@H]2CCCCN2)C1 + CCn1c(-c2cccnc2C(C)OC)c2c3cc(ccc31)N1CCOC(CC(NC(=O)C(C(C)C)N(C)C(=O)C3(F)CCN(C(=O)C#CC(C)(C)N(C)C)CC3)C(=O)N3CCCC(N3)C(=O)OCC(C)(C)C2)C1 has IC50 below 1000 nM. Can you tell?
Fulfilled

I wonder whether NC1c2ccccc2OC12CCN(c1cnc3c(N4CCCc5ncccc54)n[nH]c3n1)CC2 (centres undefined) + CCn1c(-c2cccnc2C(C)OC)c2c3cc(ccc31)N1CCOC(CC(NC(=O)C(C(C)C)N(C)C(=O)C3(F)CCN(C(=O)C#CC(C)(C)N(C)C)CC3)C(=O)N3CCCC(N3)C(=O)OCC(C)(C)C2)C1 has IC50 below 1000 nM. Can you tell?
Fulfilled

I wonder whether CCN1CCN(Cc2ccc(Nc3ncc(F)c(-c4cc(F)c5nc(C)n(C(C)C)c5c4)n3)nc2)CC1 + CCn1c(-c2cccnc2C(C)OC)c2c3cc(ccc31)N1CCOC(CC(NC(=O)C(C(C)C)N(C)C(=O)C3(F)CCN(C(=O)C#CC(C)(C)N(C)C)CC3)C(=O)N3CCCC(N3)C(=O)OCC(C)(C)C2)C1 has IC50 below 1000 nM. Can you tell?
Fulfilled

I wonder whether CC1(O)CCCC1n1c(=O)c(C(F)F)cc2cnc(NC3CCN(S(C)(=O)=O)CC3)nc21 (centres undefined) + CCn1c(-c2cc(N3CCN(C)CC3)cnc2C(C)OC)c2c3cc(ccc31)-c1csc(n1)CC(NC(=O)C1CC1C)C(=O)N1CCCC(N1)C(=O)OCC(C)(C)C2 has IC50 below 1000 nM. Can you tell?
Not fulfilled

I wonder whether CC(C)NCC(C(=O)N1CCN(c2ncnc3c2C(C)CC3O)CC1)c1ccc(Cl)cc1 (centres undefined) + CCn1c(-c2cccnc2C(C)OC)c2c3cc(ccc31)N1CCOC(CC(NC(=O)C(C(C)C)N(C)C(=O)C3(F)CCN(C(=O)C#CC(C)(C)N(C)C)CC3)C(=O)N3CCCC(N3)C(=O)OCC(C)(C)C2)C1 has IC50 below 1000 nM. Can you tell?
Not fulfilled

I wonder whether CC(C)n1nc(-c2ccc3oc(N)nc3c2)c2c(N)ncnc21 + CCn1c(-c2cccnc2C(C)OC)c2c3cc(ccc31)N1CCOC(CC(NC(=O)C(C(C)C)N(C)C(=O)C3(F)CCN(C(=O)C#CC(C)(C)N(C)C)CC3)C(=O)N3CCCC(N3)C(=O)OCC(C)(C)C2)C1 has IC50 below 1000 nM. Can you tell?
Fulfilled

I wonder whether C[C@@H](NC(=O)c1ncnc(N)c1Cl)c1ncc(C(=O)Nc2cc(C(F)(F)F)c(Cl)cn2)s1 + CCn1c(-c2cc(N3CCN(C)CC3)cnc2C(C)OC)c2c3cc(ccc31)-c1csc(n1)CC(NC(=O)C1CC1C)C(=O)N1CCCC(N1)C(=O)OCC(C)(C)C2 has IC50 below 1000 nM. Can you tell?
Not fulfilled
